Reported Endpoint: melting point

Known melting point results, listed for orientation:
CCC(CC)c1ccc(Cl)c2nc3n(c12)C(Cl)(Cl)C(=O)N3c1c(C)cc(Cl)cc1OC [Example 11] :: 190 to 192 °C
Cc1nc(N2CCCCC2)ccc1N1CCCn2c1nc1c(Cl)ccc(C(OC(F)F)C(F)(F)F)c12 (centres unmarked) [Example 295] :: 164 to 167 °C
COC(c1ccc(Cl)c2nc3n(c12)CCCN3c1ccc(Cl)cc1C(F)(F)F)C1CC1 (centres unmarked) [Example 134] :: 208 to 209 °C
CCC(OCC1CC1)c1ccc(Cl)c2nc3n(c12)CCCN3c1ccc(Cl)cc1Cl (centres unmarked) [Example 236] :: 159 to 160 °C

Need melting point for each of these molecules.
1. Cc1nc(O)nc(C)c1N1CCCn2c1nc1c(Cl)ccc(C(OC(F)F)C(F)(F)F)c12 (centres unmarked) [Example 215]
2. CCC(CC)c1ccc(Cl)c2nc3n(c12)CCCCN3c1c[n+]([O-])c(N(C)C)cc1C [Example 26]

A.
1. 208 to 210 °C
2. 142 to 143 °C
